- ASSAY_COMMENT: yeast display, Sf9 membrane polyspecificity reagent, FACS + sequencing; frameworks hold sequencing errors
PROPERTY: polyreactivity (PSR sort gate)

- QVQLVESGGGLVQAGGSLPLSCAASGIIFPYNAMGWSRQAPGKERELVAAITGGGSTYYADSVKGRFTISRDNAKNTVYLPMNSLKPEDSAVYYCAADGSGPGYDYWGQGTQVTVSS: low polyreactivity
- QVQLVESGGGLVQAGGSLRLSCAASGYIFIGYAMGWYRQAPGTERELVATITSGGSTNYADSVKGRFTISRDNAKNTVYLQMNSLNPEETAVYNCAAGRGRYCYSWRYLYAIFDYWGQGTQVTVSS: low polyreactivity
